// provenance: the supplement of paper PMC8671470

So I've got a bunch of molecules here, and I need their area under dose-response curve values.
- Test system: HL-60
- Experiment notes: area under dose-response curve (viability, 1 nM-10 uM) (fraction (0-1)); higher = more sensitive
- Conditions used: 72 h; co-treatment: DMSO vehicle

// sample CCOC(=O)N1c2ccc(C(F)(F)F)cc2[C@@H](N(Cc2cc(C(F)(F)F)cc(C(F)(F)F)c2)C(=O)OC)C[C@H]1CC , its area under dose-response curve was < 0.0301

What the record says about C1CCC(C(CC2CCCCN2)C2CCCCC2)CC1.O=C(O)/C=C\C(=O)O (centres undefined) : area under dose-response curve is 0.125

molecule c1ccc2c(c1)OCC(=C1NCCN1)O2 , area under dose-response curve observed: < 0.0301

Recorded result, CN(C)c1nc(O)c2[nH]cnc2n1 [2-Dimethylamino-6-hydroxypurine] , area under dose-response curve: < 0.0301
